Where these numbers come from: patent US20260258115A1

Parameter: Neutralization IC50 (RSV subtype A). Scope: all listed entries.
# testedSystem: RSV F on RSV-A2 virus (Respiratory syncytial virus (RSV-A2))
# runDescription: cell-based or functional assay
measuredMetric: Neutralization IC50 (RSV subtype A) (µg/mL)

• ADI-41241 (antibody, V domains shown) VH: QVQLVQSGAEVKKPGASVQVSCKASGYTFTGDYMHWVRQAPGQGLEWMGRINPNSGGTNYAQKFQGRVTMTRDTSISTAYMELSRLRSDDTAVYYCARAAAEYSSSSPTSYYYMDVWGKGTTVTVSS VL: EIQMTQSPSSLSASVGDRVTITCRASQNIYSFLNWYQQKPGKAPKLLIYAASSLQSGVPSRFSGSGSATDFTLTISSLQPEDFATYYCQQSYSPPQITFGQGTKVDIK = 18.8
• ADI-41251 (antibody, V domains shown) VH: EVQLVESGGGLVKPGGSLRLSCAASGFTFSDYYMTWIRQAPGKGLEWVSNISGGSSYTNYADSVKGRFTISRDNAKNSVYLQMNSLRAEDTAVYYCARVGCSGGVCNFFLDYWGQGTLVTVSS VL: QSVLTQPPSVSGAPGQRVTISCTGSSSNIGAGYDVHWYQQLPGTAPKLLIYDNTNRPSGVPDRFSGSKSGTSASLAITGLQAEDEADYYCQSYDSSLSGYVFGTGTKVTVL = 0.11
